Cited source for all entries: ChEMBL document CHEMBL1132650

# test_system: Glutamate receptor ionotropic, AMPA (Rattus norvegicus, UniProt P19490+P19491+P19492+P19493)
# experiment_summary: Binding affinity towards ionotropic glutamate receptor AMPA in rat cortical membranes using [3H]AMPA radioligand
# Type: cell membranes
reported_metric: pKi
# pKi: negative log10 of molar concentration; output just the value

CCOC(=O)Cc1nc2c(=O)[nH]c3cc(Cl)ccc3n2n1	5.68
O=C(O)Cc1nc2c(O)nc3cc(Cl)ccc3n2n1	5.43

Fill in pKi for record `O=C(O)CNC(=O)c1nc2c(O)nc3cc(Cl)ccc3n2n1`
5.49

Fill in pKi for record `O=C(O)c1nc2c(O)nc3cc(C(F)(F)F)ccc3n2n1`
6.05

Fill in pKi for record `CCOC(=O)c1nc2c(O)nc3ccccc3n2n1`
4.55

Fill in pKi for record `CCOC(=O)c1nc2c(=O)[nH]c3cc(C(F)(F)F)ccc3n2n1`
5.44
